Numbers sourced from patent US9718760B2.

IC50 values by entry
Target: recombinant active human PAI-1 (Homo sapiens (Human), UniProt P05121)
Sequence (P05121 24-402): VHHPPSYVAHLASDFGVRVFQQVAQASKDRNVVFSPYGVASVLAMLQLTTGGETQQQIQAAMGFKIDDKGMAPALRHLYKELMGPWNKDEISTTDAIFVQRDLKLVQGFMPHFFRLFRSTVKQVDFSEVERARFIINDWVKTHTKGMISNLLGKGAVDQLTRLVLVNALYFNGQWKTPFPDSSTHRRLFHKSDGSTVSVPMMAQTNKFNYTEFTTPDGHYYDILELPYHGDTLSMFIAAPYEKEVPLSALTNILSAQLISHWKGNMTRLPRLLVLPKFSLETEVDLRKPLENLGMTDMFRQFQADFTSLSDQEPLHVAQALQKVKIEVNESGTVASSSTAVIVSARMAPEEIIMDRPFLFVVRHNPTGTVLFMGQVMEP
Assay: Fluorometric PAI-1/uPA IC50 plate assay at pH 7.4
Format: biochemical
Details: physiologic buffer with 10% human plasma, read-out: PAI-1/uPA IC50 in 10% plasma buffer
Method: To determine the efficacy of various synthesized compounds as PAI-1 inhibitors, a fluorometric plate assay was carried out to measure the half maximal inhibitory concentration (IC50) of these compounds on recombinant active human PAI-1 in vitro. […] PAI-1 inhibitor compounds were dissolved in DMSO to a final concentration of (10-50 mM), depending upon solubility. […] The rate of AMC release by uPA (fluorescence) was measured at an excitation wavelength of 370 nm and an emission wavelength of 440 nm. […]
Give just the number in µM; leave the unit off.

Solved cases (8 shown):
# chem.smiles, units.text, IC50
records = [
    ("Cc1cc(Cl)ccc1CNC(=O)c1n[nH]c(=O)o1", "µM", 628),
    ("O=C(NCc1ccc(Br)cc1)c1ccc(O)c(O)c1", "µM", 771),
    ("N#Cc1ccc(CNC(=O)C(=O)NN)cc1", "µM", 851),
    ("Cc1ccc(CNC(=O)c2n[nH]c(=O)o2)cc1F", "µM", 405),
    ("NNC(=O)C(=O)NCc1ccc(F)cc1", "µM", 478),
    ("O=C(CCc1ccc(O)c(O)c1)NCc1ccc(C(F)(F)F)cc1", "µM", 539),
    ("NNC(=O)C(=O)NCc1ccc(Cl)cc1F", "µM", 101),
    ("COC(=O)CCC(=O)NCc1cccc(C(F)(F)F)c1", "µM", 752),
]

Now for the compound whose IC50 we want.
Checklist item: IC50 tested on recombinant active human PAI-1 (Homo sapiens (Human), UniProt P05121), entry O=C(CCc1ccc(O)c(O)c1)NCc1cc(F)c(F)c(F)c1 , value?
544
